test system: HT-29 cells; assay: Inhibition test for sphere-forming ability of cancer cells (Test Example 1), HT-29; format: cell-based, human; settings: concentration for 50% inhibition of cell proliferation, read-out: IC50 (μmol/L) HT-29 (Sphere IC50 value)
Measurement type: log10 IC50 (log10 of the value in µmol/L)
Use the decimal logarithm of IC50 (µmol/L).

Prompt: Provide one value: measured log10 IC50 of `O=C(Nc1cn(Cc2cccc(C(F)(F)F)c2)cn1)c1ccc2ncccc2n1`
Response: 0.96

Prompt: Provide one value: measured log10 IC50 of `COc1ccc(C(=O)Nc2cn(Cc3ccc(F)cc3F)cn2)cc1OC`
Response: 0.68

Prompt: Provide one value: measured log10 IC50 of `COc1ccc(C(=O)Nc2cn(Cc3cc(F)ccc3F)cn2)cc1OC`
Response: -0.12

Prompt: Provide one value: measured log10 IC50 of `O=C(Nc1cn(Cc2cccc(Cl)c2)cn1)c1ccc(OC2CCCC2)nc1`
Response: -0.09

Prompt: Provide one value: measured log10 IC50 of `Cc1ccc(F)c(Cn2cnc(NC(=O)c3ccc(OCC(F)(F)F)nc3)c2)c1F`
Response: -0.19
